Reference source for all entries: patent EP4596580A1

Biological target: T1, His-cynomolgus monkey LIGHT (cynomolgus monkey)
T1 construct: also called His-cynoLIGHT
T1 chain: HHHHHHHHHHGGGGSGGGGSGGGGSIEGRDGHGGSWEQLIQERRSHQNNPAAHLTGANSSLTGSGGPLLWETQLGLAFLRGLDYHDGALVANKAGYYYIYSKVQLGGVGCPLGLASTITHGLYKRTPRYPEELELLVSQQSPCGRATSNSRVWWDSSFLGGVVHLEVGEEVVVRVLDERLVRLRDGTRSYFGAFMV
Experiment: SPR, Biacore 8K, antibody on CM5 chip
Listed next: entries and their corresponding pKd.
Answer as the number alone; pKd is minus log10 of concentration in mol/L.

Completed entries (count: 3):
Binder: LT-m85 (antibody, human IgG4, V domains shown) VH: EVQLQQSGAELVKPGASVKMSCKASGYTFTSYNVHWVKQTPGQGLEWIGAVYPGNGDTSYNQKFKGKATLTADKSSNTAYMQLSSLTSEDSAVYYCARGSYYYTSSYFDHWGQGTTLTVSS VL: DIVLTQSPASLAVSLGQRATISCKASQSVDFDGDSYMNWYQQKPGQPPKLLIYTASNLESGIPARFTGSGSGTDFTLNIHPVEEEDAATYYCQQSYEDPFTFGSGTKLEIK
Reported property: pKd
Measured: 10.22
//
Binder: LT-m58 (antibody, human IgG4, V domains shown) VH: QVQLQQSGAEMASPGASVTLSCKASGYTFIDHIMNWVKKRPGQGLEWIGRIYPVSGETNYNQKFMGKATFSVDRSSSTVYMVLNSLTSEDPAVYYCGRGSYYWNAMDYWGQGTTLTVSS VL: DIVMTQSPASLAVSLGQRATISCKASQSVDFDGDSYMNWYQQKPGQPPKLLIYSASNLESGIPARFSGSGSGTDFTLNIHPVEEEDAATYYCQQSIEDPWTFGGGTKLEIK
Reported property: pKd
Measured: 10.46
//
Binder: LT-m17 (antibody, human IgG4, V domains shown) VH: QVQLQQSGPELVKPGASVKISCKASGYSFTGYFMNWVKQSHGKSLEWIGRIYPYSGDTFYNQKFNNKATLTVDKSSSTAHLELLSLTSEDSAVYYCGRSEHFGRNYGTGAVDYWGQGTSVTVSS VL: DVVMTQTPLSLPVSLGDQASISCRSSQGLVHSNGNTYLHWYLQKPGQSPKLLIYKVSNRFSGVPDRFSGSGSGTDFTLKISRVEAEDLGIYFCSQSTHVPYTFGGGTKLEIK
Reported property: pKd
Measured: 10.24

Query: Consider the binder LT-m55 (antibody, human IgG4, V domains shown) VH: EVQLQQSGAELVKPGASVKLSCKASGYTFATYYMYWVKQRPGQGLEWIGEINPTNGGTIFNEKFKTKATLTVDKSSSTAYMQLSSLTSEDSAVYYCARGNWPYWSFDVWGAGTSVTVSS VL: DIVLTQSPASLAVSLGQRATISCKASQSVDFDGDNYMNWYQQKPGQPPKLLIYAASNLDSGIPARFSASGSGTDFTLNIHPVEEEDAATYYCQQSIEDPWTFGGGTKLEIK and give its recorded pKd.
Reply: 10.21

Query: Consider the binder LT-m64 (antibody, human IgG4, V domains shown) VH: EVKLEESGAELVKPGASVRLSCKTSGYTFTNYYVYWVKQRPGQGLEWIGEINPTNGDPNFNEKFKSKATLTVDKSSSTAYMHLSSLTSEDSAVYYCTRSNWDYGNAMDFWGQGTSVTVSS VL: DIVMTQSPASLAVSLGQRATISCKASQSVDFDGDGYMNWYQQKPGQPPKLLIYKASHLDSGIPARFSASGSGTDFTLNIHPVEEEDAATYYCQQSIEDPFTFGSGTKLEIK and give its recorded pKd.
Reply: 10.31

Query: Consider the binder LT-m18 (antibody, V domains shown) VH: EVKLLESGPELVKPGASVKISCKASGYSFTGYFMNWVKQSHGKSLEWIGRIYPYSGDTFYNQKFNNKATLTVDKSSSTAHLELLSLTSEDSAVYYCGRSEHFGRNYGTGAVDYWGQGTSVTVSS VL: DIVLTQSPLSLPVSLGDQASISCRSSQSLVHSNGNTYLHWYLQKPGQSPKLLIYKVSNRFSGVPDRFSGSGSGTDFTLKISRVEAEDLGVYFCSQSTHVPLTFGDGTRLEIK and give its recorded pKd.
Reply: 9.80
